Form field: normalized RNA/DNA level with ligand (log10) (one value per entry).
B1: library; a variant is named by its letters at N, in order (parent)
chain: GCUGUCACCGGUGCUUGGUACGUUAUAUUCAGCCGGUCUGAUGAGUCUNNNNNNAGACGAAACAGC

# Variants of: B1
# test details: normalized RNA/DNA level with ligand (relative to sTRSVctl = 100) (log10 (% of sTRSVctl)); HEK293T overexpressing SLC46A1; ligand concentration (+) RNA-Seq: 6 mM; higher = less ribozyme self-cleavage, higher mRNA level
# condition set: with (6R,S)-folinic acid; ligand present: yes
Answer using only a numeral; do not append any unit.

Field: example entries. Status: answers known.
{"columns": ["polymer sequence", "observed"],
 "data": [
  ["GCUGUCACCGGUGCUUGGUACGUUAUAUUCAGCCGGUCUGAUGAGUCUGGUGAGAGACGAAACAGC", 1.99],
  ["GCUGUCACCGGUGCUUGGUACGUUAUAUUCAGCCGGUCUGAUGAGUCUCUGUAGAGACGAAACAGC", 2.02]
]}

Ask: For the variant "GCUGUCACCGGUGCUUGGUACGUUAUAUUCAGCCGGUCUGAUGAGUCUCCGACAAGACGAAACAGC" , what normalized RNA/DNA level with ligand (log10) is on record?
Reply: 2.04

Ask: For the variant "GCUGUCACCGGUGCUUGGUACGUUAUAUUCAGCCGGUCUGAUGAGUCUCUCAAUAGACGAAACAGC" , what normalized RNA/DNA level with ligand (log10) is on record?
Reply: 1.97

Data origin, for the record: the supplement of paper PMC6757056
